Entries and their AUC(0-t) values follow.
assay summary: Mouse brain uptake assay (MBUA), 3 mg/kg IV, 0-24 h, 4 time points
Assay type: in vivo, male CD1 mice
protocol conditions: male, CD1; plasma, mouse, 3 mg/kg IV, 0-24 h; read-out: AUClast (P)
Be sure to follow the number with its unit.

// worked examples, AUC(0-t) included
CN1CCN(c2cccc3nc([C@H]4CCC[C@@H](c5ncccc5Cl)N4)[nH]c23)CC1 (racemic) [I-122] | 1900 ng·h/mL
Cc1cccnc1[C@@H]1CCC[C@H](c2nc3cccc(N4CCN5CCCC5C4)c3[nH]2)N1C (stereo partly shown) [I-66] | 209 ng·h/mL
CN1[C@@H](c2nc3cccc(N4CCN5CCCC5C4)c3[nH]2)CCC[C@H]1c1ncccc1Cl (stereo partly shown) [I-96] | 14800 ng·h/mL
CN1CCC(n2ccnc2[C@H]2CCC[C@@H](c3ncccc3Cl)N2C)CC1 [I-170] | 887 ng·h/mL
CO[C@H]1C[C@H](c2nc3cccc(N4CCN(C)CC4)c3[nH]2)N(C)[C@H](c2ncccc2C)C1 [I-103] | 449 ng·h/mL

Name the reported AUC(0-t) value associated with the compound Cc1cccnc1[C@@H]1CCC[C@H](c2nc3cccc(N4CC5CCC(C4)N5C)c3[nH]2)N1C [I-56]
1540 ng·h/mL

Item: Cc1cccnc1[C@@H]1CCC[C@H](c2nc3cccc(N4CCN(C)C5(CC5)C4)c3[nH]2)N1C [I-108]
408 ng·h/mL

Follow-up item: COc1ccnc([C@@H]2CCC[C@H](c3nc4cccc(N5CCN(C)CC5)c4[nH]3)N2C)c1C [I-81]
1470 ng·h/mL
